Assay details: Inhibition of human lysozyme aggregation by thioflavin-T fluorescence assay

{"Compound": "O=C(NNC(=S)Nc1c2ccccc2nc2ccccc12)c1ccncc1", "Inequality sign": "=", "IC50 / µM": 182}
{"Compound": "S=C(Nc1ccccn1)Nc1c2ccccc2nc2ccccc12", "Inequality sign": "=", "IC50 / µM": 48.6}
{"Compound": "C/N=C1/SCC(=O)N1Cc1c2ccccc2nc2ccccc12", "Inequality sign": ">", "IC50 / µM": 200}
{"Compound": "CC(=O)OCC1OC(NC(=S)NNc2c3ccccc3nc3ccccc23)C(OC(C)=O)C(OC(C)=O)C1OC(C)=O (stereo not drawn)", "Inequality sign": "=", "IC50 / µM": 75.6}
{"Compound": "S=C(NNc1c2ccccc2nc2ccccc12)Nc1c2ccccc2nc2ccccc12", "Inequality sign": "=", "IC50 / µM": 6.5}
{"Compound": "COc1ccc(NC(=S)NNc2c3ccccc3nc3ccccc23)cc1", "Inequality sign": "=", "IC50 / µM": 89.1}
{"Compound": "CNC(=S)NNc1c2ccccc2nc2ccccc12", "Inequality sign": "=", "IC50 / µM": 9.9}
{"Compound": "COc1ccc(N2C(=O)CS/C2=N/Nc2c3ccccc3nc3ccccc23)cc1", "Inequality sign": "=", "IC50 / µM": 57.8}
